tested on: CAKI-1; assay: NCI tumour cell line growth inhibition, 48 h
Calls of active or inactive are those of the source. Rule as the data show it: active = GI50 up to about 1.1 µM and inactive = higher.
Give your call using only these classes: active, inactive

// known answers, use as guide
[
  {
    "compound": "COC(=O)C1C(O)C(C)C(O)OC1C(C)C(O)C(C)/C=C\\C=C(/C)C(=O)Nc1c(C)c(OC(C)=O)c2c(c1O)C(=O)C(C)=C1OCOC(/C(C)=C/C(C)=O)=C12 (centres undefined)",
    "label": "inactive"
  },
  {
    "compound": "O=C(O)c1ccc(SSc2ccc(C(=O)O)cn2)nc1",
    "label": "inactive"
  }
]

Hi, sorry to bother you, what did the test record for CC1(C)CC(=O)c2c(nc(SSc3nc4c(c(-c5ccc(Br)cc5)c3C#N)C(=O)CC(C)(C)C4)c(C#N)c2-c2ccc(Br)cc2)C1 ?
inactive

For COC(=O)C(Cc1ccc2c(c1)CCCC2)Cc1cc2c(cc1C(O)OC)CCC2 (centres undefined) , what call appears in the results of this test?
inactive

Tell me the assay call for N#Cc1nnc2c3c(-c4ccc(Cl)cc4)c(C#N)c(O)nc3nn2c1N please.
inactive

Test call, this compound: CCOC(=O)c1nc2ccc(C(F)(F)F)cc2nc1Oc1ccc(OC)cc1
inactive

Record request — test call for COc1cccc([C@H]2CC(=O)c3cc4c(cc3N2)OCO4)c1
active

What is the recorded call for this compound in the test? COC(=O)[C@H](CCSC)NC(=O)c1ccc(CNC(=O)/C(C)=C/c2ccccc2)cc1
inactive

Each compound tested received a call. Report the one for COc1cc(-c2nccc3cc(OC)c(OC)cc23)ccc1O .
inactive

Where do these numbers come from? They come from ChEMBL document CHEMBL1201862.
